In this section, each of the sequences is paired with its reported PBM E-score.
Target: Gcr1 (UniProt P07261)
Sequence: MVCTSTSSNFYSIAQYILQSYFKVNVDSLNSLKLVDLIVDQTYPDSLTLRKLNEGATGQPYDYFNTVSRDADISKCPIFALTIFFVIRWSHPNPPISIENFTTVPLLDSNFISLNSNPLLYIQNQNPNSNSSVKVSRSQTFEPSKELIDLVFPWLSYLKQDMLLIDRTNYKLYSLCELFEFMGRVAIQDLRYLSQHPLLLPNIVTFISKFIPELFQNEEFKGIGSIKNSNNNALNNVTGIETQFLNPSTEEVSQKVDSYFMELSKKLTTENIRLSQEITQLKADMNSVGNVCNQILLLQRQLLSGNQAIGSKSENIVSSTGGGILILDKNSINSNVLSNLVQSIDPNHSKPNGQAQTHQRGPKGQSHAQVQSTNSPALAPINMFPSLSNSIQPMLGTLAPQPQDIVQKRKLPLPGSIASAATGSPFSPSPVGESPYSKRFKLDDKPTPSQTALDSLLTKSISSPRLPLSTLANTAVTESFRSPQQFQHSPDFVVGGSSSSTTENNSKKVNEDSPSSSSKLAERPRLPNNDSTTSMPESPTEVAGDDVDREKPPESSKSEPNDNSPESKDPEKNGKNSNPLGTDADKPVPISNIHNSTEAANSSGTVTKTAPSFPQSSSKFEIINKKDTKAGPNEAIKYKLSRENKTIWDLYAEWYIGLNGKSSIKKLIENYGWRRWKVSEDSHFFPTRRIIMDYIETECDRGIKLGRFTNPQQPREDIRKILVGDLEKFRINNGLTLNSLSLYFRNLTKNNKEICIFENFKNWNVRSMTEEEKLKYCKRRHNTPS
Assay: PBM E-score (8-mer binding enrichment) (E-score (-0.5 to 0.5)); higher = stronger / more preferred TF binding
Conditions: protein concentration: 100 nM; construct: GST-full length
In all, about 33,000 sequences were measured (“E-score (-0.5 to 0.5)”: median about -0.011, highest 2% from about 0.28 on). For the sample, the highest values were picked, then their nearest neighbours and some sequences at random.
Write the value as a bare number.

See these solved cases before continuing.
>>> df
   entry_sequence  observed_result
0        ATCGATCC          -0.0388
1        CAGAATCC            0.161
2        AGAAAAAC            0.134
3        ACAAGCCA           -0.275

Give the reported value of PBM E-score for this record: AGTCGGAC -0.093

Give the reported PBM E-score for this sequence. AGTGGATG 0.394

Look up and report measured PBM E-score for this entry: AGTGGATC 0.286

Supply PBM E-score value. Item: GATCCCAC 0.235
